# assayed.target: human ALK (hALK, purified ALK protein) (Homo sapiens, UniProt Q9UM73)
# Sequence (Q9UM73 with tags, fused parts or gaps): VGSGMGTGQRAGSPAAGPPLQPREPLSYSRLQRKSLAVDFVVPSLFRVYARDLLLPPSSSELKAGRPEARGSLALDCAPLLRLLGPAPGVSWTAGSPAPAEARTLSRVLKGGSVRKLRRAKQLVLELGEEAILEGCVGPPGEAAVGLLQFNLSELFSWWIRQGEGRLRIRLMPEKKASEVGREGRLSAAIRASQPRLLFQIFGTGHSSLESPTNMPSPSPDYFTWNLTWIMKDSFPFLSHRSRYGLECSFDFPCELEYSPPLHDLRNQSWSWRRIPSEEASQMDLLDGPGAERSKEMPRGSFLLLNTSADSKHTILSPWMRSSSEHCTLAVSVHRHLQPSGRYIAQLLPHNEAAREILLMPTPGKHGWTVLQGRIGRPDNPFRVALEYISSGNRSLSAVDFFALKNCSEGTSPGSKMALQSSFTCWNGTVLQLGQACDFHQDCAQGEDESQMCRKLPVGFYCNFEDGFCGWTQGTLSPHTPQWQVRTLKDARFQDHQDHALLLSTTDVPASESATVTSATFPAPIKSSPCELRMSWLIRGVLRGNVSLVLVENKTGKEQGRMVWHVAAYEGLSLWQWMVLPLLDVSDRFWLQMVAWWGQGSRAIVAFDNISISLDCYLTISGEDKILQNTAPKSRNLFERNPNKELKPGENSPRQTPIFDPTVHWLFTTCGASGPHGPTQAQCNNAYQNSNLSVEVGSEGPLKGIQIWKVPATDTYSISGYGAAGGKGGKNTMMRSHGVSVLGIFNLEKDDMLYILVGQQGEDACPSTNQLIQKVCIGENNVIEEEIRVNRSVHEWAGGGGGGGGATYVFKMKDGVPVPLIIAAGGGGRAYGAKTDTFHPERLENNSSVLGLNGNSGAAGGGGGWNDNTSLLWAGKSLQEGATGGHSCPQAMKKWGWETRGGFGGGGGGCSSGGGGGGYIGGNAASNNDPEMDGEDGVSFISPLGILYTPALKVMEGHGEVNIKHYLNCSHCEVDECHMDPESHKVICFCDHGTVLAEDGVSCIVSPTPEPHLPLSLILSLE
# assay.overview: Monovalent affinity of humanized antibodies, BLitz System, human ALK
# Type: binding
# protocol.conditions: BLitz, purified ALK protein at 70 μg/mL, single binding site fit; antibody by plate position of Table 19

>  <molecule>
Ab402: humanized anti-ALK antibody; VL SEQ ID NO: 425, VH SEQ ID NO: 432 (antibody, V domains shown, VH domain - Ab354; VL domain - Ab399) VH: EVQLVQSGAEVKKPGTSVKLSCKASGYTFTSYWMHWVRQARGQRLEWIGYIKPSSGYTKYAQKFQERVTLTADKSTSTAYMELSSLRSEDTAVYYCARDYYGSSSWFAYWGQGTLVTVSS VL: EIVMTQSQATMSTSVGERATLSCKASQNVGTNVAWYQQKPGQSPKALIYSASYRYSGVPARFSGSGSGTDFTLTISSVEPEDFAVYYCQQYNSYPYMYTFGQGTKLEIK

>  <Kd (nM)>
87.6

$$$$
